The measured values listed here are drawn from ChEMBL document CHEMBL5046234.

test system: BaF3; test: Antiproliferative activity against mouse BaF3 cells assessed as cell growth inhibition incubated for 72 hrs by CCK8 assay; format: functional, cell-based; conditions: BaF3, 72 h
pIC50: −log10 of the molar value.
Quantity Name: pIC50

query: Param readout = pIC50; param system = BaF3; param query = Cc1ccc(C(=O)Nc2ccc(N3CCN(C4CCCC4)C3=O)nc2)cc1N1CCCC1=O ; response: value
result: < 5.00

====

test system: BaF3; experiment: Antiproliferative activity against mouse BaF3 cells expressing QKI fused TRKB assessed as cell growth inhibition incubated for 72 hrs by CCK8 assay; type: functional, cell-based; conditions: BaF3, 72 h
Quantity Name: pIC50
Conceptually, pIC50 converts a concentration in mol/L into minus its log10.

query: Fill in: pIC50 of Cc1ccc(C(=O)Nc2ccc(N3CCN(C4CCCC4)C3=O)nc2)cc1N1CCCC1=O is ___
result: 5.21
